- measured-on: O-acyltransferase (Oryctolagus cuniculus)
- Sequence (G1SFD9 1-524): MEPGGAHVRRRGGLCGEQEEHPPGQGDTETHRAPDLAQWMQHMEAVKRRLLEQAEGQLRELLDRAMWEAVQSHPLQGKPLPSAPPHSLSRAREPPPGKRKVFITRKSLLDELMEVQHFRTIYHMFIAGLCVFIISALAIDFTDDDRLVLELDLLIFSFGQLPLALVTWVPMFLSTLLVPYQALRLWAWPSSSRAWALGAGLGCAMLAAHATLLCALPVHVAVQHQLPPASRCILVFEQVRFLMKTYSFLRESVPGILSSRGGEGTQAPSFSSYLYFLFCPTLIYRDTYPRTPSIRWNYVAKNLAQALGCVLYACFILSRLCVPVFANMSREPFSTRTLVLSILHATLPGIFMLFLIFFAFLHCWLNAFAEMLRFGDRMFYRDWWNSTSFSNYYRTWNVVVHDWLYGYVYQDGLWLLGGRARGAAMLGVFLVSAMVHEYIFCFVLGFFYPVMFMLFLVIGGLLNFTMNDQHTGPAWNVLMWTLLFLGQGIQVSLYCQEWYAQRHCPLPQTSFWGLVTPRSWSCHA
- measurement-protocol: In vitro inhibition of Acyl coenzyme A:cholesterol acyltransferase using intestinal microsomes isolated from cholesterol fed rabbits
readout: pIC50
Scale: pIC50 equals -log10([C]), with [C] in mol/L.

Param item = "CCCCCCC(CCCCCC)(CNC(=O)Nc1c(C(C)C)cccc1C(C)C)c1ccccc1" ; retrieve measured pIC50.
6.92

Param item = "Cc1ccc(NC(=O)NCC2(c3ccccc3)CCCCC2)c(C)c1" ; retrieve measured pIC50.
5.26

Param item = "CC(C)c1cccc(C(C)C)c1NC(=O)NCC1(c2ccsc2)CCCC1" ; retrieve measured pIC50.
7.74
